# System: OCT4
# experiment.description: qRT-PCR gene expression in hES cells: OCT4
# Type: cell-based, human
# experimental.setup: Homo sapiens, 1 mM, 72 hours, normalized to β-ACTIN, read-out: Expression relative to control, OCT4
Quick reference for fold induction at 1000 µM among some compounds
Reply briefly: the number, and no unit.

# count of solved cases: 3
compound	fold induction at 1000 µM
Cc1cncs1 [Compound 4, 5-methylthiazole]	1.13
Nc1nnn[nH]1 [Compound 7, 1H-tetrazol-5-amine]	1.53
O=C(O)Cc1nnn[nH]1 [Compound 11, 2-(1H-tetrazol-5-yl)acetic acid]	1.07

Exercise: For CCOC(=O)Cc1nnn[nH]1 [Compound 6, ethyl 2-(1H-tetrazol-5-yl)acetate] , what is its reported fold induction at 1000 µM?
Key: 1.34

Exercise: Which fold induction at 1000 µM value is on record for O=C(O)CCCC[C@H]1CCSS1 (single isomer, unassigned) [Compound 3] ?
Key: 1.85

Exercise: I would be grateful if you could share the reported fold induction at 1000 µM for Cc1nnn[nH]1 [Compound 10, 5-methyl-1H-tetrazole] .
Key: 0.977

Exercise: I am curious: what fold induction at 1000 µM value has been reported for CSc1nnn[nH]1 [Compound 12, 5-methylsulfanyl-1H-tetrazole] ?
Key: 1.16

Exercise: Given the entry Cn1c(-c2ccccc2)cnc1S [Compound 5, 3-methyl-4-phenyl-1H-imidazole-2-thione] , report its measured fold induction at 1000 µM.
Key: 1.5

Measured values drawn from patent US10196604B2 for this set.
